Tested on: CRL-2813
Assay: Cell growth assay (sulforhodamine B), CRL-2813 cells
Type: cell-based, human
Details: Homo sapiens, CRL2813, 120 h, 5 days, SRB
// map IC50 onto a label; ranges lowest (below 1 µM), middle (1 µM to below 3 µM), highest (3 µM or more)

Q: # bin lookup: classify COCCOc1ccc(C(C)(C)C)cc1C1(c2cc(C(C)(C)C)ccc2O)C(=O)Nc2ccccc21 (stereo not shown) by its IC50
A: lowest

Q: Sort Cc1cc(C2(c3cc(C(C)(C)C)ccc3O)C(=O)Nc3ccccc32)ccc1Cl (stereo not shown) into one of the categories.
A: middle

Q: Pick a category. Item: CC(C)(C)c1ccc(O)c(C2(c3ccccc3)C(=O)Nc3ccc(I)cc32)c1 (stereo not shown)
A: middle

Q: Into which bin does this compound go? CC(C)Oc1ccc(O)c(C2(c3cc(OC(C)C)ccc3O)C(=O)Nc3ccccc32)c1
A: highest

Q: Which class holds COc1ccc(C2(c3cc(C(C)(C)C)ccc3OCCN3CCOCC3)C(=O)Nc3ccc(I)cc32)cc1 (stereo not shown) ?
A: middle

Q: Could you place CN(C)c1ccc(C2(c3cc(C(C)(C)C)ccc3OCCN3CCOCC3)C(=O)Nc3c2ccc(F)c3F)cc1 (stereo not shown) in its proper category? Many thanks.
A: highest

Q: State the band of C#CCOc1ccc(C(C)(C)C)cc1C1(c2ccccc2)C(=O)Nc2ccccc21 (stereo not shown)
A: highest

Q: State the class of the compound shown: CC(C)(C)c1ccc(OCC(=O)O)c(C2(c3ccccc3)C(=O)Nc3ccccc32)c1 (stereo not shown)
A: highest

Q: Form: Item = CN1CCN(CCOc2ccc(C(C)(C)C)cc2C2(c3cc(C(C)(C)C)ccc3OCCN3CCN(C)CC3)C(=O)Nc3ccccc32)CC1 ; Class = ?
A: lowest
